- System: Polygonum persicaria
- test protocol: Test H weed control, field plots
- Format: in vivo
- Parameters: concentration or dose not given beside the values
- measurement context: 36 days after treatment; g a.i./ha: tribenuron-methyl 22.5, metsulfuron-methyl 6, ethametsulfuron-methyl 16, imazapyr isopropylamine salt 15, aclonifen 1200
Counter-ions that a name gives are not always drawn.
Attribute: weed control, visual rating: Polygonum persicaria
Write it as a number; the unit % goes unstated.

These solved cases illustrate the format of a correct answer.
{"columns": ["compound", "display unit", "quantitative result"],
 "data": [
  ["CC(C)C1(C)N=C(c2ncccc2C(=O)O)NC1=O (centres unmarked) [Imazapyr, isopropylamine salt, Imazapyr]", "%", 100],
  ["CCOc1nc(NC)nc(NC(=O)NS(=O)(=O)c2ccccc2C(=O)OC)n1", "%", 0],
  ["COC(=O)c1ccccc1S(=O)(=O)NC(=O)Nc1nc(C)nc(OC)n1", "%", 100],
  ["COC(=O)c1ccccc1S(=O)(=O)NC(=O)N(C)c1nc(C)nc(OC)n1", "%", 100]
]}

Next compound, weed control, visual rating: Polygonum persicaria to be filled in.
Enquiry: Item Nc1c([N+](=O)[O-])ccc(Oc2ccccc2)c1Cl has what recorded weed control, visual rating: Polygonum persicaria?
Return: 70
